Overview of recorded IC50 for various molecules
subjectOfTest: KRAS G12V (Homo sapiens, UniProt P01116+P62937, G12V)
Sequence (P01116 1-169 isoform P01116-2 G12V limits assumed): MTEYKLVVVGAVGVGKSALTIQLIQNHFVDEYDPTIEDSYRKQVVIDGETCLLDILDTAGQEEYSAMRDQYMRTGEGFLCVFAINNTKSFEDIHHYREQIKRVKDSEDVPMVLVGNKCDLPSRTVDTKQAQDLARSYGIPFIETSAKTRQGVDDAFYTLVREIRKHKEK
Sequence (P62937 whole entry): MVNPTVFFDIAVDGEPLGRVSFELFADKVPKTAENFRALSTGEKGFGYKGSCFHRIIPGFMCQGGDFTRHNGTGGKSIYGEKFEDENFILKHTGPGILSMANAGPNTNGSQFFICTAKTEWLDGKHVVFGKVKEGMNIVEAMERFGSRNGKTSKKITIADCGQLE
experiment: Ras-Raf disruption / FRET / MOA assay (BRAF RBD)
Assay type: biochemical
measurementConditions: Ras-Raf disruption, with Cyclophilin A; read-out: KRAS G12V FRET data IC50

molecule	IC50
CCn1c(-c2cccnc2[C@H](C)OC)c2c3cc(ccc31)-c1cc(O)cc(c1)C[C@H](NC(=O)[C@H](C(C)C)N(C)C(=O)CC1CN(C(=O)[C@@H]3CN3)C1)C(=O)N1CCC[C@H](N1)C(=O)OCC(C)(C)C2 [Example 178]	100 to 1000 nM
CCn1c(-c2cccnc2[C@H](C)OC)c2c3cc(ccc31)-c1cc(O)cc(c1)C[C@H](NC(=O)[C@H](C(C)C)N(C)C(=O)c1ccc([C@@H]3CN3)nc1)C(=O)N1CCC[C@H](N1)C(=O)OCC(C)(C)C2 [Example 87]	100 to 1000 nM
CCn1c(-c2cccnc2[C@H](C)OC)c2c3cc(ccc31)-c1csc(n1)C[C@H](NC(=O)[C@H](C(C)C)N(C)C(=O)N1CC[C@H]1CN(C)C(=O)[C@@H]1CN1)C(=O)N1CCC[C@H](N1)C(=O)OCC(C)(C)C2 [Example 235]	1000 to 10000 nM

Next molecule, IC50 to be filled in.
Memo: CCn1c(-c2cccnc2[C@H](C)OC)c2c3cc(ccc31)-c1cc(O)cc(c1)C[C@H](NC(=O)[C@H](C1CCCC1)N(C)C(=O)[C@H]1CCN(C[C@H]3CN3)C1=O)C(=O)N1CCC[C@H](N1)C(=O)OCC(C)(C)C2 [Example 58] , reported IC50: 10 to 100 nM

====

subjectOfTest: KRAS G12D (Homo sapiens, UniProt P01116+P62937, G12D)
Sequence (P01116 1-169 isoform P01116-2 G12D limits assumed): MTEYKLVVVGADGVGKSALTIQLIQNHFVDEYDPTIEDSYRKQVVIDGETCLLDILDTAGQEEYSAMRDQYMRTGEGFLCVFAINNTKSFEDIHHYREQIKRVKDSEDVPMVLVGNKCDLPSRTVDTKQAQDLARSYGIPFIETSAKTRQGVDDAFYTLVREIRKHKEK
Sequence (P62937 whole entry): as the sequence (P62937 whole entry) above
experiment: Disruption of BRAF RBD interaction with Ras (FRET / MOA assay, with Cyclophilin A)
Assay type: biochemical
measurementConditions: read-out: KRAS G12D FRET data, IC50
pIC50: −log10 of the molar value.
reportedMetric: pIC50

Some molecules with recorded pIC50:
molecule	subjectOfTest	reportedMetric	testValue
CCn1c(-c2cccnc2[C@H](C)OC)c2c3cc(ccc31)-c1cc(O)cc(c1)C[C@H](NC(=O)[C@H](C(C)C)N(C)C(=O)C1COC1)C(=O)N1CCC[C@H](N1)C(=O)OCC(C)(C)C2	KRAS G12D (Homo sapiens, UniProt P01116+P62937, G12D)	pIC50	5.00 to 6.00
CCn1c(-c2cccnc2[C@H](C)OC)c2c3cc(ccc31)-c1csc(n1)C[C@H](NC(=O)[C@H](C(C)C)N(C)C(=O)N1CCN(C(=O)C3COC3)CC1)C(=O)N1CCC[C@H](N1)C(=O)OCC(C)(C)C2 (atropisomer, axis not shown)	KRAS G12D (Homo sapiens, UniProt P01116+P62937, G12D)	pIC50	6.00 to 7.00
CCn1c(-c2cccnc2[C@H](C)OC)c2c3cc(ccc31)-c1cc(O)cc(c1)C[C@H](NC(=O)[C@@H](NC(C)=O)C(C)(C)OC)C(=O)N1CCC[C@H](N1)C(=O)OCC(C)(C)C2 (racemic)	KRAS G12D (Homo sapiens, UniProt P01116+P62937, G12D)	pIC50	< 5.00
CCn1c(-c2cc(C3CCN(C)CC3)cnc2[C@H](C)OC)c2c3cc(ccc31)-c1csc(n1)C[C@H](NC(=O)[C@H](C(C)C)N(C)C(=O)N(C)C)C(=O)N1CCC[C@H](N1)C(=O)OCC(C)(C)C2 (atropisomer, axis not shown)	KRAS G12D (Homo sapiens, UniProt P01116+P62937, G12D)	pIC50	6.00 to 7.00
CCn1c(-c2cccnc2[C@H](C)OC)c2c3cc(ccc31)-c1csc(n1)C[C@H](NC(=O)C1CCC1)C(=O)N1CCC[C@H](N1)C(=O)OCC(C)(C)C2	KRAS G12D (Homo sapiens, UniProt P01116+P62937, G12D)	pIC50	5.00 to 6.00

Memo: CCn1c(-c2cccnc2COC)c2c3cc(ccc31)-c1cc(O)cc(c1)C[C@H](NC(=O)[C@H](C(C)C)N(C)C(=O)C1CN(C(=O)C#CCN(C)C)C1)C(=O)N1CCC[C@H](N1)C(=O)OCC(C)(C)C2 , reported pIC50: 5.00 to 6.00
